Target: PI3K (p110α/p85α) (Homo sapiens, UniProt P42336)
Construct: purchased Carna Biosciences 07CBS-0402A
Sequence (P42336 whole entry): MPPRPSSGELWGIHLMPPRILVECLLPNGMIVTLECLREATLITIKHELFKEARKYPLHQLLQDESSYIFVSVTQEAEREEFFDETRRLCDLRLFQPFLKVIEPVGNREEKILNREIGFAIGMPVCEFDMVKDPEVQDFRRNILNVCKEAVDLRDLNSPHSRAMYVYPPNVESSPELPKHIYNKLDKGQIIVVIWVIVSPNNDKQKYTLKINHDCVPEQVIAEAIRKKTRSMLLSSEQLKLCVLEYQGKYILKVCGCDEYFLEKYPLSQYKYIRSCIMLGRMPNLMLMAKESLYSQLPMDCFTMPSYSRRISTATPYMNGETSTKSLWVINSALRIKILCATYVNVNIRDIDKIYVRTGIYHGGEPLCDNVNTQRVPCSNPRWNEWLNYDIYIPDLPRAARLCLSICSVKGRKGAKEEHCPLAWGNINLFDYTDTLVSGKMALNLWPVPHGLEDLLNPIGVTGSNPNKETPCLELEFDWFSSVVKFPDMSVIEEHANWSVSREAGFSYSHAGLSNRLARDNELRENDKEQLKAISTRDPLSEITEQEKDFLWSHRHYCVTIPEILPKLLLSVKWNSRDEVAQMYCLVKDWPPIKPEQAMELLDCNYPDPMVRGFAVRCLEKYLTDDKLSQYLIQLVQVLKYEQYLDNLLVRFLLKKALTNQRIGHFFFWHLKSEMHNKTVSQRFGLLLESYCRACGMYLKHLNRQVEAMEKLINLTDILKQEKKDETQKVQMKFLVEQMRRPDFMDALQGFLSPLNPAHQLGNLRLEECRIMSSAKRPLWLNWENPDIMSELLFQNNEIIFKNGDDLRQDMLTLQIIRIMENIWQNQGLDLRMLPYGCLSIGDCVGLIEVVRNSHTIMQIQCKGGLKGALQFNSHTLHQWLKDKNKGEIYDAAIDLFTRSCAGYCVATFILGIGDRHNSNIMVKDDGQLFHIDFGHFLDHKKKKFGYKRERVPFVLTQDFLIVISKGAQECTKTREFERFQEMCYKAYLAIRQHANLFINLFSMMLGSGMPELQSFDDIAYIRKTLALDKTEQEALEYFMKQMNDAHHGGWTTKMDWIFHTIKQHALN
Sequence (P27986 whole entry partner): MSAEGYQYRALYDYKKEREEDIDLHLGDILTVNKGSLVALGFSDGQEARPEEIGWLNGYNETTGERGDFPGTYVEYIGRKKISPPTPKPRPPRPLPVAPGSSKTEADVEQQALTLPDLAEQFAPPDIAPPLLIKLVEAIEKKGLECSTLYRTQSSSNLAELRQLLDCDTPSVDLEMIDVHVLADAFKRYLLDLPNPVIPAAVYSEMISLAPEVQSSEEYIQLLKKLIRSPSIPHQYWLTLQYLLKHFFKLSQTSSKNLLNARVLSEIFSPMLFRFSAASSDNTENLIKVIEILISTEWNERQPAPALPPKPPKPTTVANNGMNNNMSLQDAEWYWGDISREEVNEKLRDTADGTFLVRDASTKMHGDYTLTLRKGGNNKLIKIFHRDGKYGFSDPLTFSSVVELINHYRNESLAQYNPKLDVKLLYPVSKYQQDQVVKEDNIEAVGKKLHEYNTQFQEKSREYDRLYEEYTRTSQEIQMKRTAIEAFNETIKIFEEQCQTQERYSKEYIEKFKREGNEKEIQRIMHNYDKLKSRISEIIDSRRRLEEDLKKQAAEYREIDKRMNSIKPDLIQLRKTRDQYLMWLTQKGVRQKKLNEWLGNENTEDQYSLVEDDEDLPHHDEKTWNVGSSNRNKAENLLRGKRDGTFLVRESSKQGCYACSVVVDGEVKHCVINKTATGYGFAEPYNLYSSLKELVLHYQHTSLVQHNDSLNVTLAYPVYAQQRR
Assay: PI3K activity assay (ADP Hunter Plus)
Format: biochemical
Details: quantitative results; read-out: PI3K α IC50
pIC50: −log10 of the molar value.
readout: pIC50

I. CC1(C)Cc2nc3c(N4CCOCC4)nc(-c4cnc(N)nc4)cn3c2C(O)C1 (stereo not shown)
II. O=C1CCc2nc3c(N4CCOCC4)nc(-c4cccc(O)c4)cn3c2N1
III. Nc1ncc(-c2cn3c4c(nc3c(N3CCOCC3)n2)CN(C(=O)C(F)(F)F)CC4)cn1
List the 3 entries from lowest pIC50 to highest pIC50 value. Rank the items, then write their labels in that order.
I, II, III
